Numbers sourced from ChEMBL document CHEMBL2218924.

target: Vascular endothelial growth factor receptor 3 (Homo sapiens) (UniProt P35916); conditions: at 1 µM
Sequence (P35916 whole entry): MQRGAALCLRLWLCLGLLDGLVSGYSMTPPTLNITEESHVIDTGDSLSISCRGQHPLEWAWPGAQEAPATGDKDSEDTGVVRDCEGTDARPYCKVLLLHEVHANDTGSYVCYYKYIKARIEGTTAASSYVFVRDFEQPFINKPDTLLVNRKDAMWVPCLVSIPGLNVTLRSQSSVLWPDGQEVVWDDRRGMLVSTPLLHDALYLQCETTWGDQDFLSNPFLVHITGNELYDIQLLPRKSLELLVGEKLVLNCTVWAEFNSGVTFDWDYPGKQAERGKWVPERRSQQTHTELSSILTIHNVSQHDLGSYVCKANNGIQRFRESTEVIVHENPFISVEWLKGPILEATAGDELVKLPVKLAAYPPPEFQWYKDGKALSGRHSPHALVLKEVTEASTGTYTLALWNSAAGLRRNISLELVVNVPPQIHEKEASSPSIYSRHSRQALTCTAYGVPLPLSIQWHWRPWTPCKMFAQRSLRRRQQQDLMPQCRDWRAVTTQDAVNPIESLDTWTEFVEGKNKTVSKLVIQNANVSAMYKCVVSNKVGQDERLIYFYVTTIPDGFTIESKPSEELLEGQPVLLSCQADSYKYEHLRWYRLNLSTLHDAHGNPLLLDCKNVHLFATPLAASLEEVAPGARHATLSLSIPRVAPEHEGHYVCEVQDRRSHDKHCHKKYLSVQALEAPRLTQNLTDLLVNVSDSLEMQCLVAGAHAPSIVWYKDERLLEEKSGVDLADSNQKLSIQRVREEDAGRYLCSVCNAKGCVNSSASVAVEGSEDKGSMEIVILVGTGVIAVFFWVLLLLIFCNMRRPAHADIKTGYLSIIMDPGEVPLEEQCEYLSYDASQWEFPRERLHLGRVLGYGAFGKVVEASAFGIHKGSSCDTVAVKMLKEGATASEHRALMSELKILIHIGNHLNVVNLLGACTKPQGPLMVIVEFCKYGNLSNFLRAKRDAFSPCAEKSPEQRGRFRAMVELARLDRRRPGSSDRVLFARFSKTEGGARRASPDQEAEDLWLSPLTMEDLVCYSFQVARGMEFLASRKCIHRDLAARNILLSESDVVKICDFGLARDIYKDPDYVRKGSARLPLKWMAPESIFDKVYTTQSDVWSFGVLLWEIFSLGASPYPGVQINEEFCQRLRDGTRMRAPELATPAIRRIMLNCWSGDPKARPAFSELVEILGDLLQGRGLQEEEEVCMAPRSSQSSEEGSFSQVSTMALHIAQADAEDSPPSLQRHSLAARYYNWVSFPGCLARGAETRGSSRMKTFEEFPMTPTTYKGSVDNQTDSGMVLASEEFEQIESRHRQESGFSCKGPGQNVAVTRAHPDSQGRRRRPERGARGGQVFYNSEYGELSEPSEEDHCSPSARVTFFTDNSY
Endpoint label: residual activity (%)

- Chem smiles: "NC(=O)Nc1sc(-c2ccc(F)cc2)cc1C(N)=O"
  Value observed: 4
- Chem smiles: "CN(C)S(=O)(=O)c1ccc2c(c1)/C(=C/c1cc3c([nH]1)CCCC3)C(=O)N2"
  Value observed: 33
- Chem smiles: "Nc1ncnc2c1cnn2-c1ccccc1"
  Value observed: 99
- Chem smiles: "O=C1C(Cl)=C(N2C(=O)CCC2=O)C(=O)c2ccccc21"
  Value observed: 91
- Chem smiles: "O=C(Nc1nc2ccccc2n1CCN1CCOCC1)c1cccc([N+](=O)[O-])c1"
  Value observed: 36
- Chem smiles: "CCCCc1c(-c2ccc(OC)cc2)[nH]c2nccnc12"
  Value observed: 6

###

biological target: Tyrosine-protein kinase Fyn (Homo sapiens); details: at 1 µM
// residual activity lookup, one value per entry
Endpoint label: residual activity (%)

- Chem smiles: "COc1cc2c(cc1OC)-c1n[nH]c(Nc3cccc(F)c3)c1C2"
  Endpoint label: "residual activity"
  Display unit: "%"
  Value observed: 16
- Chem smiles: "Nc1n[nH]c2nc3ccccc3nc12"
  Endpoint label: "residual activity"
  Display unit: "%"
  Value observed: 73
- Chem smiles: "c1ccc(-c2cnc(Nc3ccc(OCCN4CCCC4)cc3)s2)cc1"
  Endpoint label: "residual activity"
  Display unit: "%"
  Value observed: 55
- Chem smiles: "O=C1Nc2ccc(Cl)cc2/C1=C/c1cc(Cl)c(O)c(Cl)c1"
  Endpoint label: "residual activity"
  Display unit: "%"
  Value observed: 67
- Chem smiles: "NC(=O)Nc1sc(-c2ccc(F)cc2)cc1C(N)=O"
  Endpoint label: "residual activity"
  Display unit: "%"
  Value observed: 24
- Chem smiles: "CC(C)[C@H](CO)Nc1nc(Nc2cc(N)cc(Cl)c2)c2ncn(C(C)C)c2n1"
  Endpoint label: "residual activity"
  Display unit: "%"
  Value observed: 9
- Chem smiles: "Nc1ncnc2c1c(-c1ccc(Oc3ccccc3)cc1)cn2C1CCCC1"
  Endpoint label: "residual activity"
  Display unit: "%"
  Value observed: 0
- Chem smiles: "COc1cc2nccc(Oc3ccc(NC(=S)NC(=O)c4ccccc4C)cc3)c2cc1OC"
  Endpoint label: "residual activity"
  Display unit: "%"
  Value observed: -1
- Chem smiles: "O=C1C(Cl)=C(N2C(=O)CCC2=O)C(=O)c2ccccc21"
  Endpoint label: "residual activity"
  Display unit: "%"
  Value observed: 76
- Chem smiles: "O=C(Nc1ccc(Cl)cc1)c1ccccc1NCc1ccncc1"
  Endpoint label: "residual activity"
  Display unit: "%"
  Value observed: 102
- Chem smiles: "CC(C)c1nn(-c2c(Cl)cccc2Cl)c2nc(Cc3ccc(OCCO)cc3)[nH]c(=O)c12"
  Endpoint label: "residual activity"
  Display unit: "%"
  Value observed: 67

###

// residual activity lookup, one value per entry
molecular target: Insulin receptor-related protein (Homo sapiens); conditions: at 10 µM

- Chem smiles: "COc1ccc(COc2ccc(Cc3cnc(N)nc3N)cc2OC)cc1"
  residual activity, %: 82
- Chem smiles: "N#Cc1c(NC(=O)c2cccc3ccccc23)sc2c1CCCC2"
  residual activity, %: 72
- Chem smiles: "O=C(CCCc1ccc(-c2ccccc2F)cc1)Nc1ccc(O)cc1"
  residual activity, %: 98
- Chem smiles: "O=C(c1cc2cc(O)ccc2[nH]1)c1cc2cc(O)ccc2[nH]1"
  residual activity, %: 55
- Chem smiles: "COc1ccc2c(c1)c(C1=C(c3c[nH]c4ccccc34)C(=O)NC1=O)cn2CCCN(C)C"
  residual activity, %: 67
- Chem smiles: "O=c1cc(N2CCOCC2)oc2c1ccc1ccccc12"
  residual activity, %: 98
- Chem smiles: "c1ccc(-c2cnc(Nc3ccc(OCCN4CCCC4)cc3)s2)cc1"
  residual activity, %: 65
- Chem smiles: "CCOC(=O)c1c(C)[nH]c(/C=C2\\C(=O)Nc3ccccc32)c1C"
  residual activity, %: 81
- Chem smiles: "O=c1cc(N2CCNCC2)oc2c(-c3ccccc3)cccc12"
  residual activity, %: 70
- Chem smiles: "O=c1cc(N2CCOCC2)oc2c(-c3ccccc3)cccc12"
  residual activity, %: 75
- Chem smiles: "O=C1NC(=O)C(c2cn(CCCn3ccnc3)c3ccccc23)=C1Nc1ccccc1"
  residual activity, %: 65
- Chem smiles: "Nc1ncnc2c1cnn2-c1ccccc1"
  residual activity, %: 93
- Chem smiles: "O=C1Cc2c([nH]c3ccc(Br)cc23)-c2ccccc2N1"
  residual activity, %: 82
- Chem smiles: "CN(C)S(=O)(=O)c1ccc2c(c1)/C(=C/c1cc3c([nH]1)CCCC3)C(=O)N2"
  residual activity, %: 77
- Chem smiles: "NC(=O)Nc1sc(-c2ccc(F)cc2)cc1C(N)=O"
  residual activity, %: 3
- Chem smiles: "NC(=O)c1cccc(-c2cc(Nc3ccc(OC(F)(F)F)cc3)ncn2)c1"
  residual activity, %: 98
- Chem smiles: "Oc1cccc(-c2nc(N3CCOCC3)c3oc4ncccc4c3n2)c1"
  residual activity, %: 84
- Chem smiles: "CC(C)N(CCC(=O)c1ccc2ccccc2c1)Cc1ccccc1"
  residual activity, %: 82
- Chem smiles: "Cn1c2ccccc2c2c3c(c4c5ccccc5n(CCC#N)c4c21)CNC3=O"
  residual activity, %: 53
- Chem smiles: "Nc1n[nH]c2nc3ccccc3nc12"
  residual activity, %: 86
- Chem smiles: "N#C/C(=C\\c1ccc(O)c(O)c1)C(=O)NCc1ccccc1"
  residual activity, %: 85
